Biological target: T1, Murine APRIL (mouse, UniProt Q9D777 105-241, limits assumed)
T1 sequence (looked up): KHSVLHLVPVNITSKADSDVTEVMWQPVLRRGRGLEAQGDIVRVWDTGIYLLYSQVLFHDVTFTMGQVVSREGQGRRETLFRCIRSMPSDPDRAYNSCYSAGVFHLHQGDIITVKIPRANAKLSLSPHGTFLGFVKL
Experiment: shotgun scan, phage display
Given measured F (APRIL), output true (1) if it is greater than or equal to 2 and false (0) if not.

# example entries with known answers
* SLSCRKEQGKFYDPLLRDCISCASICGQHPKQCAYFCENKLR (receptor, phage library variant, format as m9) [TACI_d2 H81P] | false (0)
* SLSCRKEQAKFYDHLLRDCISCASICGQHPKQCAYFCENKLR (receptor, phage library variant, format as m9) [TACI_d2 G76A] | false (0)
* SLSCRKEQGKFYDHLLRDCISCASICGEHPKQCAYFCENKLR (receptor, phage library variant, format as m9) [TACI_d2 Q95E] | true (1)
* SLSCRKEQGKFYDHLLRDCISCASICGQHPKQCAYVCENKLR (receptor, phage library variant, format as m9) [TACI_d2 F103V] | false (0)
* SLSCRKAQGKFYDHLLRDCISCASICGQHPKQCAYFCENKLR (receptor, phage library variant, format as m9) [TACI_d2 E74A] | false (0)

(Q) Kindly determine if F (APRIL) recorded for SLSCRKEQGKFYDHLLRDCISCASICGQHPKQCAYFCANKLR (receptor, phage library variant, format as m9) [TACI_d2 E105A] is above or exactly 2.
(A) false (0)
